Reference source: patent US9023857B2

# tested-on: CDK1/cyclin B (Homo sapiens)
# Sequence (P06493 whole entry, species assumed): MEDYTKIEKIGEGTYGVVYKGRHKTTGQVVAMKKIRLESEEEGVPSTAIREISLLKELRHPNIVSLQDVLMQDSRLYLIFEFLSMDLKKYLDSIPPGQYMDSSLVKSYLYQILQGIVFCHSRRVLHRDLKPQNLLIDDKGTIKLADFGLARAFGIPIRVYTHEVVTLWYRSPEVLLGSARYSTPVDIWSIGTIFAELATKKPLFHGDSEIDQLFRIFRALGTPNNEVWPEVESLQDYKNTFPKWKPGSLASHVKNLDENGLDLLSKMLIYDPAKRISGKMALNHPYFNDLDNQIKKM
# Sequence (P14635 whole entry partner, species assumed): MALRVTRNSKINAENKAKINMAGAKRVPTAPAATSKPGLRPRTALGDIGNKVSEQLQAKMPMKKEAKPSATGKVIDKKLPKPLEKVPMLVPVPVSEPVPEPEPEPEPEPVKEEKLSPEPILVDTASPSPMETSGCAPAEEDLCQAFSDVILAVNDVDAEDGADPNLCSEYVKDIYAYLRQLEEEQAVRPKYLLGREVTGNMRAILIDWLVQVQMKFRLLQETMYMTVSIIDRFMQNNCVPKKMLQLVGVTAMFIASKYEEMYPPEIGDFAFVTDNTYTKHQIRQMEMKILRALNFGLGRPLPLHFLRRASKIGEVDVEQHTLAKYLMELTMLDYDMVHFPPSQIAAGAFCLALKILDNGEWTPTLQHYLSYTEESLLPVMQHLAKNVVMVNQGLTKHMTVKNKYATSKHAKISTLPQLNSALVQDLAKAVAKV
# assay-summary: CDK inhibition assay, CDK1/cyclin B
pIC50: −log10 of the molar value.
Kindly return YES if reported pIC50 is no lower than 6; return NO if it is lower.

[[record]]
molecule = "CC(C)C(CO)Nc1nc(NCc2ccccc2N)c2ncn(C(C)C)c2n1 (centres unmarked)"
assigned_label = "YES"

[[record]]
molecule = "Cn1cnc2c(NCc3ccccc3)nc(NC3CCCCC3N)nc21 (centres unmarked)"
assigned_label = "NO"

[[record]]
molecule = "CCn1cnc2c(NCc3ccccc3N)nc(NC(CO)C(C)C)nc21 (centres unmarked)"
assigned_label = "YES"

[[record]]
molecule = "CCCn1cnc2c(NCc3ccccc3N)nc(NC(CC)CO)nc21 (centres unmarked)"
assigned_label = "YES"

[[record]]
molecule = "CC(C)n1cnc2c(NCc3cc(F)ccc3N)nc(NC3CCCCC3N)nc21 (centres unmarked)"
assigned_label = "YES"

[[record]]
molecule = "CCC(CO)Nc1nc(NCc2cc(Cl)ccc2N)c2ncn(C3CCCCC3)c2n1 (centres unmarked)"
assigned_label = "YES"

[[record]]
molecule = "CC(C)n1cnc2c(NCc3ccccc3N)nc(N[C@H]3CC[C@H](O)CC3)nc21"
assigned_label = "YES"

[[record]]
molecule = "CC(C)n1cnc2c(NCc3ccccc3)nc(NC3CCC(N)CC3)nc21 (centres unmarked)"
assigned_label = "YES"

[[record]]
molecule = "Cc1cccc(CNc2nc(NC3CCC(N)CC3)nc3c2ncn3C(C)C)c1N (centres unmarked)"
assigned_label = "YES"

[[record]]
molecule = "CCCCCCCNc1nc(NCc2ccccc2)c2ncn(C(C)C)c2n1"
assigned_label = "NO"

[[record]]
molecule = "Nc1ccccc1CNc1nc(NC2CCC(N)CC2)nc2c1ncn2C1CCCCC1 (centres unmarked)"
assigned_label = "YES"


----------
# assay-summary: In vitro cytotoxic activity (Calcein AM, 72 hours), BJ
# test-settings: human, BJ normal fibroblasts
quantity-name: IC50 at 72 h

[[record]]
compound = "CCC(CO)Nc1nc(NCc2cc(Cl)ccc2N)c2ncn(Cc3ccccc3)c2n1 (stereo not drawn)"
observed_result = "> 167 µM"

[[record]]
compound = "CCC(CO)Nc1nc(NCc2cc(Cl)ccc2N)c2ncn(C3CCCCC3)c2n1 (stereo not drawn)"
observed_result = "> 167 µM"

[[record]]
compound = "CC(O)CNc1nc(NCc2ccccc2N)c2ncn(C(C)C)c2n1 (stereo not drawn)"
observed_result = "> 167 µM"

[[record]]
compound = "CCC(CO)Nc1nc(NCc2cc(Cl)ccc2N)c2ncn(C(C)C)c2n1 (stereo not drawn)"
observed_result = "> 167 µM"

[[record]]
compound = "Nc1ccccc1CNc1nc(NC2CCC(N)CC2)nc2c1ncn2C1CCCCC1 (stereo not drawn)"
observed_result = "> 167 µM"

[[record]]
compound = "CC[C@H](CO)Nc1nc(NCc2ccccc2)c2ncn(C(C)C)c2n1"
observed_result = "> 167 µM"

[[record]]
compound = "Cn1cnc2c(NCc3ccccc3N)nc(NC3CCC(N)CC3)nc21 (stereo not drawn)"
observed_result = "> 167 µM"

[[record]]
compound = "Cc1cccc(CNc2nc(NC3CCC(N)CC3)nc3c2ncn3C(C)C)c1N (stereo not drawn)"
observed_result = "> 167 µM"

[[record]]
compound = "CCCn1cnc2c(NCc3ccccc3N)nc(NC(CC)CO)nc21 (stereo not drawn)"
observed_result = "> 167 µM"

[[record]]
compound = "CCn1cnc2c(NCc3ccccc3N)nc(NC(CO)C(C)C)nc21 (stereo not drawn)"
observed_result = "> 167 µM"

[[record]]
compound = "CC(C)C(CO)Nc1nc(NCc2ccccc2N)c2ncn(C)c2n1 (stereo not drawn)"
observed_result = "> 167 µM"

[[record]]
compound = "CCC(CO)Nc1nc(NCc2ccccc2N)c2ncn(CC)c2n1 (stereo not drawn)"
observed_result = "> 167 µM"

[[record]]
compound = "CCC(CO)Nc1nc(NCc2ccccc2N)c2ncn(C(C)C)c2n1 (stereo not drawn)"
observed_result = "> 167 µM"

[[record]]
compound = "CCCCCCCNc1nc(NCc2ccccc2)c2ncn(C(C)C)c2n1"
observed_result = "> 167 µM"

[[record]]
compound = "Cn1cnc2c(NCc3ccccc3)nc(NC3CCCCC3N)nc21 (stereo not drawn)"
observed_result = "> 167 µM"

[[record]]
compound = "CC(C)n1cnc2c(NCc3ccccc3N)nc(N[C@H]3CC[C@H](O)CC3)nc21"
observed_result = "> 167 µM"

[[record]]
compound = "CC(C)n1cnc2c(NCc3ccccc3)nc(NC3CCC(N)CC3)nc21 (stereo not drawn)"
observed_result = "> 167 µM"

[[record]]
compound = "Nc1ccccc1CNc1nc(NC2CCC(N)CC2)nc2c1ncn2Cc1ccccc1 (stereo not drawn)"
observed_result = "> 167 µM"


----------
# tested-on: CDK1/cyclin B (Homo sapiens)
# assay-summary: CDK inhibition assay, CDK1/cyclin B
quantity-name: IC50 (nM)

[[record]]
compound = "CC(O)CNc1nc(NCc2ccccc2N)c2ncn(C(C)C)c2n1 (centres unmarked) [Compound 104]"
observed_result = 90

[[record]]
compound = "CCC(CO)Nc1nc(NCc2ccccc2N)c2ncn(CC)c2n1 (centres unmarked) [Compound 62]"
observed_result = 70

[[record]]
compound = "CC(C)n1cnc2c(NCc3ccccc3)nc(NCC(C)(C)O)nc21 [Compound A2148]"
observed_result = 600

[[record]]
compound = "CCC(CO)Nc1nc(NCc2cc(Cl)ccc2N)c2ncn(C(C)C)c2n1 (centres unmarked) [Compound 118]"
observed_result = 80

[[record]]
compound = "CC(C)C(CO)Nc1nc(NCc2ccccc2N)c2ncn(C)c2n1 (centres unmarked) [Compound 7]"
observed_result = 40


----------
Entries and their measured IC50 follow.
# tested-on: CDK9/cyclin T (Homo sapiens, UniProt P50750)
# Sequence (P50750 whole entry, species assumed): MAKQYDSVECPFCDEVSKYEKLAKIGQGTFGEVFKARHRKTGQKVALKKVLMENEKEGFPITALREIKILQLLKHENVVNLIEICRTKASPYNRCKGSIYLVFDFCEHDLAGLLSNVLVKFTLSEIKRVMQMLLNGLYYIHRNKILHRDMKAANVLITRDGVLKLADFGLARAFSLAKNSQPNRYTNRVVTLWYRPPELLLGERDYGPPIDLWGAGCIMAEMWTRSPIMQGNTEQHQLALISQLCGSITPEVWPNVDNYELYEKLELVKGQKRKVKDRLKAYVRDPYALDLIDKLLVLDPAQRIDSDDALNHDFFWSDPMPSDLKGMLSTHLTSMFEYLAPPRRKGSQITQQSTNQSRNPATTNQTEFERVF
# Sequence (O60563 whole entry partner, species assumed): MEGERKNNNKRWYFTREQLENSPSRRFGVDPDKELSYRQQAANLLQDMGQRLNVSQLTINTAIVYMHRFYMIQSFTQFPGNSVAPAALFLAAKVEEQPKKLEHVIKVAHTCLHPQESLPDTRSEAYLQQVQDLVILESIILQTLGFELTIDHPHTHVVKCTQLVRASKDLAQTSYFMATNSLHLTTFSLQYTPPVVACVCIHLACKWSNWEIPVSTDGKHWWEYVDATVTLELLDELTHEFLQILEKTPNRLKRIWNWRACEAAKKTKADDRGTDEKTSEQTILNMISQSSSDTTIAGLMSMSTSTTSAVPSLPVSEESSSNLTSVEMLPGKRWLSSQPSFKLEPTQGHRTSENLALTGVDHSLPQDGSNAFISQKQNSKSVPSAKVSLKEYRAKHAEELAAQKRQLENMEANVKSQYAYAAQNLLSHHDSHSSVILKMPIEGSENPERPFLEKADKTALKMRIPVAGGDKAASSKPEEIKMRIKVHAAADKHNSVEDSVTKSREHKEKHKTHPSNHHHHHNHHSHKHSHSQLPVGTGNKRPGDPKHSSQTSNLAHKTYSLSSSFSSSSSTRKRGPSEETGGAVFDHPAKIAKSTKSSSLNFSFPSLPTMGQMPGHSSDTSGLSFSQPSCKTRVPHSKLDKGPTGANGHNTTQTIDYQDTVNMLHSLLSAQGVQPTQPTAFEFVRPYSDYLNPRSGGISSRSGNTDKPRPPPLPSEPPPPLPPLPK
# assay-summary: CDK inhibition assay, CDK9/cyclin T
quantity-name: IC50

[[record]]
compound = "CCC(CO)Nc1nc(NCc2cc(Cl)ccc2N)c2ncn(C(C)C)c2n1 (stereo not drawn)"
quantity_name = "IC50"
observed_result = "2 nM"

[[record]]
compound = "CCC(CO)Nc1nc(NCc2cc(Cl)ccc2N)c2ncn(C3CCCCC3)c2n1 (stereo not drawn)"
quantity_name = "IC50"
observed_result = "40 nM"

[[record]]
compound = "Cn1cnc2c(NCc3ccccc3N)nc(NC3CCC(N)CC3)nc21 (stereo not drawn)"
quantity_name = "IC50"
observed_result = "10 nM"

[[record]]
compound = "CC(C)n1cnc2c(NCc3cc(F)ccc3N)nc(NC3CCCCC3N)nc21 (stereo not drawn)"
quantity_name = "IC50"
observed_result = "8 nM"

[[record]]
compound = "CCn1cnc2c(NCc3ccccc3N)nc(NC(CO)C(C)C)nc21 (stereo not drawn)"
quantity_name = "IC50"
observed_result = "0.9 nM"

[[record]]
compound = "CCC(CO)Nc1nc(NCc2ccccc2N)c2ncn(C(C)C)c2n1 (stereo not drawn)"
quantity_name = "IC50"
observed_result = "5 nM"

[[record]]
compound = "CC(C)n1cnc2c(NCc3ccccc3N)nc(N[C@H]3CC[C@H](O)CC3)nc21"
quantity_name = "IC50"
observed_result = "3 nM"

[[record]]
compound = "CC(O)CNc1nc(NCc2ccccc2N)c2ncn(C(C)C)c2n1 (stereo not drawn)"
quantity_name = "IC50"
observed_result = "6 nM"

[[record]]
compound = "CC(C)C(CO)Nc1nc(NCc2ccccc2N)c2ncn(C)c2n1 (stereo not drawn)"
quantity_name = "IC50"
observed_result = "1 nM"


----------
# tested-on: CDK9/cyclin T (Homo sapiens)
# assay-summary: CDK inhibition assay, CDK9/cyclin T
pIC50: −log10 of the molar value.
Kindly return true if reported pIC50 is no lower than 6; return false if it is lower.

[[record]]
compound = "CCCn1cnc2c(NCc3ccccc3N)nc(NC(CC)CO)nc21 (stereo not drawn)"
tested_on = "CDK9/cyclin T (Homo sapiens)"
assigned_label = "true"

[[record]]
compound = "CCC(CO)Nc1nc(NCc2cc(Cl)ccc2N)c2ncn(Cc3ccccc3)c2n1 (stereo not drawn)"
tested_on = "CDK9/cyclin T (Homo sapiens)"
assigned_label = "true"

[[record]]
compound = "Cn1cnc2c(NCc3ccccc3)nc(NC3CCCCC3N)nc21 (stereo not drawn)"
tested_on = "CDK9/cyclin T (Homo sapiens)"
assigned_label = "false"

[[record]]
compound = "CCC(CO)Nc1nc(NCc2ccccc2N)c2ncn(CC)c2n1 (stereo not drawn)"
tested_on = "CDK9/cyclin T (Homo sapiens)"
assigned_label = "true"

[[record]]
compound = "Nc1ccccc1CNc1nc(NC2CCC(N)CC2)nc2c1ncn2C1CCCCC1 (stereo not drawn)"
tested_on = "CDK9/cyclin T (Homo sapiens)"
assigned_label = "true"


----------
Entries and their measured log10 of IC50 follow.
# System: promyelocytic leukemia HL 60
# assay-summary: In vitro cytotoxic activity (Calcein AM, 72 hours), HL 60
# test-settings: Homo sapiens, HL-60, 72 h, read-out: Cytotoxicity IC50 HL60
quantity-name: log10 of IC50 (log10 of the value in µM)

[[record]]
compound = "Cn1cnc2c(NCc3ccccc3)nc(NC3CCCCC3N)nc21 (stereo not drawn) [Compound A1140]"
quantity_name = "log10 of IC50"
observed_result = 1.84

[[record]]
compound = "Nc1ccccc1CNc1nc(NC2CCC(N)CC2)nc2c1ncn2Cc1ccccc1 (stereo not drawn) [Compound 231]"
quantity_name = "log10 of IC50"
observed_result = 1.51

[[record]]
compound = "CC(O)CNc1nc(NCc2ccccc2N)c2ncn(C(C)C)c2n1 (stereo not drawn) [Compound 104]"
quantity_name = "log10 of IC50"
observed_result = 1.46

[[record]]
compound = "CCC(CO)Nc1nc(NCc2ccccc2N)c2ncn(CC)c2n1 (stereo not drawn) [Compound 62]"
quantity_name = "log10 of IC50"
observed_result = 0.83

[[record]]
compound = "CCCCCCCNc1nc(NCc2ccccc2)c2ncn(C(C)C)c2n1 [Compound A218]"
quantity_name = "log10 of IC50"
observed_result = 1.96

[[record]]
compound = "CCn1cnc2c(NCc3ccccc3N)nc(NC(CO)C(C)C)nc21 (stereo not drawn) [Compound 64]"
quantity_name = "log10 of IC50"
observed_result = 0.32

[[record]]
compound = "CCC(CO)Nc1nc(NCc2cc(Cl)ccc2N)c2ncn(Cc3ccccc3)c2n1 (stereo not drawn) [Compound 247]"
quantity_name = "log10 of IC50"
observed_result = 1.53

[[record]]
compound = "CC[C@H](CO)Nc1nc(NCc2ccccc2)c2ncn(C(C)C)c2n1 [RO]"
quantity_name = "log10 of IC50"
observed_result = 1.54

[[record]]
compound = "CC(C)C(CO)Nc1nc(NCc2ccccc2N)c2ncn(C)c2n1 (stereo not drawn) [Compound 7]"
quantity_name = "log10 of IC50"
observed_result = 0.38

